target: Endothelial lipase (EL) (Homo sapiens); construct: HT-1080 cells that were transformed using RAGE technology (Athersys) to overexpress endogenous EL; endogenous in cells; conditioned medium used; assay: Endothelial lipase (EL) enzymatic assay, fluorescent substrate A10070 in DMPG vesicles; format: biochemical; conditions: EL from conditioned media of HT-1080 cells; compound preincubated 30 min at 37° C; read-out: EL IC50
Measurement type: IC50

// known answers, use as guide
>  <Compound>
CC1(Cc2nnc(C(c3nc4ccc(-c5ccc(F)nc5)cc4s3)S(=O)(=O)Cc3ccccc3)o2)NC(=O)NC1=O (single isomer, unassigned; isomer a) [Example 6]

>  <Result>
11 nM

$$$$
>  <Compound>
CS(=O)(=O)C(c1nnc(CC2SC(=O)NC2=O)o1)c1nc2ccc(-c3ccc(=O)n(Cc4ccccc4)c3)cc2s1 (stereo not drawn)

>  <Result>
< 10 nM

$$$$

Task: What does the data say about its IC50? Entry: NS(=O)(=O)NCc1nnc(C(c2nc3ccc(-c4cccc(C(=O)NCCO)c4)cc3s2)S(=O)(=O)CCC(F)(F)F)o1 (stereo not drawn)
Output: < 10 nM

* * *

Molecular target: hepatic lipase (HL) (Homo sapiens)
Construct: made in house; host or cells: COS cells (conditioned medium, partially purified)
Sequence (P11150 23-499): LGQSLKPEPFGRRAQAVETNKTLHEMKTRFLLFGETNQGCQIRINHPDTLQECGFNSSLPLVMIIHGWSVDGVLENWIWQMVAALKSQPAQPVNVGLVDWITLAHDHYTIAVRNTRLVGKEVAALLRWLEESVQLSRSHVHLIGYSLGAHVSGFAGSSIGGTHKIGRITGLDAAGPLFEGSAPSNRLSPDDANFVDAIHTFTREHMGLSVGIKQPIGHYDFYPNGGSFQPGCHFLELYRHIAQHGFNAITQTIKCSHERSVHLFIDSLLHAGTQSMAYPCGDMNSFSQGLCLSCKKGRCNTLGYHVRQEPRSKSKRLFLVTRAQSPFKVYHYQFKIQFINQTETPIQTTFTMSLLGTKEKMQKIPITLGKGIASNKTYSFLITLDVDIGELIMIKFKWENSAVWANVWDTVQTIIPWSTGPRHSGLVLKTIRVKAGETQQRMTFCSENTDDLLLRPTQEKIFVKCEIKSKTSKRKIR
Test: Hepatic lipase (HL) enzymatic assay, fluorescent substrate A10070 in DMPG vesicles
Format: biochemical
Settings: HL partially purified from conditioned media of COS cells; compound preincubated 30 min at 37° C; read-out: HL IC50
Measurement type: log10(IC50) (log10 of the value in nM)
Please be aware that the numbers have been log10-transformed from IC50 in nM.

// known answers, use as guide
>  <Molecule>
O=C(Cc1nnc(C(c2nc3ccc(-c4ccc(C(=O)N5CCOCC5)cc4)cc3s2)S(=O)(=O)Cc2ccccc2)o1)NCC1(O)CCC1 (stereo not shown)

>  <log10(IC50)>
2.44

$$$$
>  <Molecule>
CS(=O)(=O)C(c1nnc(C[C@H]2NS(=O)(=O)NC2=O)o1)c1nc2ccc(-c3ccc(C(=O)N4CCOCC4)cc3)cc2s1 (stereo partly shown)

>  <log10(IC50)>
3.51

$$$$
>  <Molecule>
CC(C)(C)CNC(=O)c1cccc(-c2ccc3nc(C(c4nnc(CNS(N)(=O)=O)o4)S(C)(=O)=O)sc3c2)c1 (stereo not shown)

>  <log10(IC50)>
0.85

$$$$
>  <Molecule>
Cn1cc(-c2ccc3nc(C(c4nnc(CNS(N)(=O)=O)o4)S(C)(=O)=O)sc3c2)cn1 (stereo not shown)

>  <log10(IC50)>
2.34

$$$$
>  <Molecule>
O=C1NC(=O)C(Cc2nnc(C(c3nc4ccc(-c5ccc(C(=O)N6CCOCC6)cc5)cc4s3)S(=O)(=O)CCN3CCOCC3)o2)S1 (stereo not shown)

>  <log10(IC50)>
3.13

$$$$

Here's the next entry for you.
Task: Return log10(IC50) measured with hepatic lipase (HL) (Homo sapiens) given this molecule: CS(=O)(=O)C(c1nnc(C[C@@H]2NS(=O)(=O)N(C3CC3)C2=O)o1)c1nc2ccc(-c3ccccc3)cc2s1 (stereo partly shown)
Output: 1.75

* * *

biological target: Endothelial lipase (EL) (Homo sapiens, UniProt Q9Y5X9); construct: HT-1080 cells that were transformed using RAGE technology (Athersys) to overexpress endogenous EL; endogenous in cells; conditioned medium used; experiment: Endothelial lipase (EL) enzymatic assay, fluorescent substrate A10070 in DMPG vesicles; assay type: biochemical; conditions: EL from conditioned media of HT-1080 cells; compound preincubated 30 min at 37° C; read-out: EL IC50
Here, each record is paired with measured IC50 data.

// known answers, use as guide
>  <Molecule>
CS(=O)(=O)C(c1nnc(CC2SC(=O)NC2=O)o1)c1nc2ccc(-c3cnc(O)nc3)cc2s1 (stereo not drawn) [Example 182]

>  <IC50>
< 10 nM

$$$$
>  <Molecule>
Cc1noc(C)c1-c1ccc2sc(C(c3nnc(CNS(N)(=O)=O)o3)S(C)(=O)=O)nc2c1 (stereo not drawn) [Example 248]

>  <IC50>
5 nM

$$$$
>  <Molecule>
O=S(=O)(O)Cc1nnc(C(c2nc3ccc(-c4ccc(OCc5ccccc5)cc4)cc3s2)S(=O)(=O)CCC(F)(F)F)o1 (stereo not drawn) [Example 11]

>  <IC50>
> 10 nM

$$$$
>  <Molecule>
NS(=O)(=O)NCc1nnc(C(c2nc3ccc(-c4ccccc4)cc3s2)S(=O)(=O)C2CCOCC2)o1 (stereo not drawn) [Example 53]

>  <IC50>
< 10 nM

$$$$
>  <Molecule>
O=C1NC(=O)C(Cc2nnc(C(c3nc4c(F)cc(-c5ccccc5)cc4s3)S(=O)(=O)Cc3ccccc3)o2)S1 (stereo not drawn) [Example 93]

>  <IC50>
< 10 nM

$$$$

Task: Return IC50 measured with Endothelial lipase (EL) (Homo sapiens, UniProt Q9Y5X9) given this molecule: Cc1nc(C)c(-c2ccc3nc(C(c4nnc(CC5SC(=O)NC5=O)o4)S(C)(=O)=O)sc3c2)s1 (stereo not drawn) [Example 102]
Output: < 10 nM

Task: Return IC50 measured with Endothelial lipase (EL) (Homo sapiens, UniProt Q9Y5X9) given this molecule: CS(=O)(=O)C(c1nnc(CNS(N)(=O)=O)o1)c1nc2ccc(-c3ccc(C(=O)N4CCOCC4)cc3)cc2s1 (stereo not drawn) [Example 130]
Output: < 10 nM

Task: Return IC50 measured with Endothelial lipase (EL) (Homo sapiens, UniProt Q9Y5X9) given this molecule: CC1(Cc2nnc(C(c3nc4ccc(-c5cccc(C(=O)N6CCOCC6)c5)cc4s3)S(C)(=O)=O)o2)NC(=O)NC1=O (stereo not drawn) [Example 210]
Output: 9 nM

Task: Return IC50 measured with Endothelial lipase (EL) (Homo sapiens, UniProt Q9Y5X9) given this molecule: CC1(Cc2nnc(C(c3nc4ccc(-c5ccccc5)cc4s3)S(C)(=O)=O)o2)NC(=O)N(CC(F)(F)F)C1=O (single isomer, unassigned; isomer a) [Example 27]
Output: < 10 nM

Task: Return IC50 measured with Endothelial lipase (EL) (Homo sapiens, UniProt Q9Y5X9) given this molecule: CS(=O)(=O)C(c1nnc(CC2SC(=O)NC2=O)o1)c1nc2cc(F)c(-c3ccccc3)cc2s1 (stereo not drawn) [Example 160]
Output: < 10 nM

Task: Return IC50 measured with Endothelial lipase (EL) (Homo sapiens, UniProt Q9Y5X9) given this molecule: COC1CN(C(=O)c2cccc(-c3ccc4nc(C(c5nnc(CNS(N)(=O)=O)o5)S(C)(=O)=O)sc4c3)c2)C1 (stereo not drawn) [Example 267]
Output: 14 nM

Task: Return IC50 measured with Endothelial lipase (EL) (Homo sapiens, UniProt Q9Y5X9) given this molecule: O=C(NCCS(=O)(=O)C(c1nnc(CC2SC(=O)NC2=O)o1)c1nc2cc(F)c(-c3ccccc3)cc2s1)OCc1ccccc1 (stereo not drawn) [Example 167]
Output: < 10 nM

Task: Return IC50 measured with Endothelial lipase (EL) (Homo sapiens, UniProt Q9Y5X9) given this molecule: CC1(Cc2nnc(C(c3nc4ccc(-c5ccccc5)cc4s3)S(C)(=O)=O)o2)NC(=O)NC1=O (stereo not drawn) [Example 29]
Output: < 10 nM

* * *

Biological target: Endothelial lipase (EL) (Homo sapiens, UniProt Q9Y5X9)
Construct: HT-1080 cells that were transformed using RAGE technology (Athersys) to overexpress endogenous EL; endogenous in cells; conditioned medium used
Sequence (Q9Y5X9 21-500): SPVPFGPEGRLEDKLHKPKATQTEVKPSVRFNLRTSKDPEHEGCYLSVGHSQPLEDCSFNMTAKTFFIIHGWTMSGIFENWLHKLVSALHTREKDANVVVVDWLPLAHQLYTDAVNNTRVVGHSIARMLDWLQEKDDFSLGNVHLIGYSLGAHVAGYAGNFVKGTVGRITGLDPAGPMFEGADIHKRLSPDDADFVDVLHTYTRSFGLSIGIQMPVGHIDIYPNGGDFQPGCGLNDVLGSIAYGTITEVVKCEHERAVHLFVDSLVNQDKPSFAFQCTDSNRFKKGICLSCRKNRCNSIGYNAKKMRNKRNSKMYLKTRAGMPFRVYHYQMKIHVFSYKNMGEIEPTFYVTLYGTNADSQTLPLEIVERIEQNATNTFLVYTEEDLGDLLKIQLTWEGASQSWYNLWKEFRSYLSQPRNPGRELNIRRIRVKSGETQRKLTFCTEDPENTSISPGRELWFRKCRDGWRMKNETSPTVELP
Assay: Endothelial lipase (EL) enzymatic assay, fluorescent substrate A10070 in DMPG vesicles
Assay type: biochemical
Details: EL from conditioned media of HT-1080 cells; compound preincubated 30 min at 37° C; read-out: EL IC50
Here, each record is paired with measured pIC50 data.
Remember the convention: pIC50 equals -log10 of concentration in molar.

// known answers, use as guide
>  <Molecule>
COCc1ccc(-c2ccc3nc(C(c4nnc(CNS(N)(=O)=O)o4)S(=O)(=O)Cc4cc(C(F)(F)F)cc(C(F)(F)F)c4)sc3c2)cc1 (stereo not shown)

>  <Quantitative result>
8.40

$$$$
>  <Molecule>
COCCNC(=O)c1cccc(-c2ccc3nc(C(c4nnc(CC5(C)NC(=O)NC5=O)o4)S(C)(=O)=O)sc3c2)c1 (stereo not shown)

>  <Quantitative result>
7.74

$$$$
>  <Molecule>
CS(=O)(=O)C(c1nnc(CNS(N)(=O)=O)o1)c1nc2ccc(-c3ccc(O)nc3)cc2s1 (stereo not shown)

>  <Quantitative result>
7.80

$$$$
>  <Molecule>
CC1(Cc2nnc(C(c3nc4ccc(-c5cccc(C(=O)N6CC[C@@H](O)C6)c5)cc4s3)S(C)(=O)=O)o2)NC(=O)NC1=O (stereo partly shown)

>  <Quantitative result>
8.70

$$$$

Task: Return pIC50 measured with Endothelial lipase (EL) (Homo sapiens, UniProt Q9Y5X9) given this molecule: CC(c1nnc(CNS(N)(=O)=O)o1)(c1nc2ccc(-c3ccccc3)cc2s1)S(C)(=O)=O (single isomer, unassigned) [Reference 1, Isomer B, reference compound]
Output: 5.28

Just for reference, patent US20140011799A1 is where these values come from.
